# measurement-notes: chemical genetic growth profiling, strain panel (AID 1159580);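 also: tested at 20 µM; growth read once vehicle control cultures reached saturation at 30 °C; 1 = growth at the plate median or of vehicle wells; lower values mean less growth of the strain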
# test-settings: S. cerevisiae deletion strains, growth OD, locus YDL192W, strain arf1
The campaign covered roughly 5,500 compounds. About 2,000 (36%) were called active. Inconclusive results (about 18%) are left out. Rule as the data show it: active = normalized growth mostly below about 0.91 (no sharp cut-off); inconclusive = no clear call, values can overlap the other calls; inactive = mostly above about 0.92. This is one part of the list.
Your reply should match one of these outcome classes. class 1 = active, class 0 = inactive

**Query** Recorded test call requested for NC(CSCSCC(N)C(=O)O)C(=O)O (stereo unspecified)
**Result** class 0

**Query** What did the test return for CCN(Cc1ccncc1)C(=O)C(CO)c1ccccc1 (stereo unspecified) ?
**Result** class 0

----------
# measurement-notes: chemical genetic growth profiling, strain panel (AID 1159580);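 also: tested at 20 µM; growth read once vehicle control cultures reached saturation at 30 °C; 1 = growth at the plate median or of vehicle wells; lower values mean less growth of the strain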
# test-settings: S. cerevisiae deletion strains, growth OD, locus YKR091W, strain srl3, hits give low values
Out of some 5,500 compounds screened, about 2,000 (36%) were called active. Roughly 18% stayed inconclusive and do not appear here. This is one part of the list.
reported-property: normalized growth
Reply briefly: the number, and no unit.

1) CC1CCC2(OC1)OC1CC3C4CC[C@H]5C[C@@H](O)CC[C@]5(C)C4CC(=O)[C@]3(C)C1C2C (some centres undefined)	1.01

Lab book: normalized growth of CCCC(C)(COC(N)=O)COC(=O)NC(C)C (centres undefined) noted as 0.97

O=C(O)C1=C[C@@H](O)[C@@H](O)[C@H](O)C1 yielded normalized growth of 0.969

Lab note: measured normalized growth of CC(C)N(CCC(C(N)=O)(c1ccccc1)c1ccccn1)C(C)C (centres undefined) was 0.559

Quick note, normalized growth for CC(CC(C(N)=O)(c1ccccc1)c1ccccc1)N(C)C (centres undefined) landed at 0.987

normalized growth reading for C=C1CCC2(OC1)OC1CC3C4CC=C5CC(O)CC(O)C5(C)C4CCC3(C)C1C2C (centres undefined) : 1.01

Per the records, this compound ( O=c1ccc2cc(OC3OC(CO)C(O)C(O)C3O)c(O)cc2o1 (centres undefined) ) has normalized growth equal to 0.989

// O=c1ccc2c(O)c3ccoc3cc2o1 : normalized growth value = 0.984
